Assignment: determine reported Tripling of the latency period in N of 10 animals for the given compounds.
Test system: acetylcholine-induced bronchospasm
Test: Protective action against acetylcholine-induced bronchospasm in conscious guinea pigs
Format: in vivo, guinea pig
Settings: 100 μmol/kg p.o.; test 30 min after application; acetylcholine mist 0.06%

| Compound | Meas value |
| --- | --- |
| O=c1ccc(-c2ccc(OC(F)F)cc2)n[nH]1 [compound 6] | 8 of 10 animals |

Record Tripling of the latency period in N of 10 animals per entry; entries follow.
1. Cn1c(=O)c2[nH]cnc2n(C)c1=O [Theophylline, theophylline, reference compound]
2. O=c1ccc(-c2cccc(OC(F)F)c2)n[nH]1 [compound 7]
3. COc1cc(-c2ccc(=O)[nH]n2)ccc1OC(F)F [compound 5]
4. O=c1ccc(-c2cccc(OC(F)(F)C(F)F)c2)n[nH]1 [Serial No. 2]

["3 of 10 animals", "9 of 10 animals", "9 of 10 animals", "8 of 10 animals"]

----------
System: isolated, spontaneously contracted chain of tracheal rings of the guinea pig
Test: Bronchospasmolytic action in vitro on chain of tracheal rings (relaxation of spontaneous tonic contraction)
Type: cell-based
Conditions: activity on trachea relative to theophylline
Lab note: anything with (EC50)theophylline / (EC50)substance at or over 9 counts as class 1; the rest go in class 0.

Use these answered entries as a reference point.
| Molecule | Qualitative label |
| --- | --- |
| O=c1ccc(-c2cccc(OC(F)F)c2)n[nH]1 [compound 7] | class 1 |
| O=c1ccc(-c2ccc(OC(F)F)cc2)n[nH]1 [compound 6] | class 1 |
| O=c1ccc(-c2ccc(OC(F)(F)C(F)F)cc2)n[nH]1 [Serial No. 3] | class 1 |
| COc1cc(-c2ccc(=O)[nH]n2)ccc1OC(F)F [compound 5] | class 1 |

Now examine the next entry.
Please tell me: is the molecule O=c1ccc(-c2ccc(OC(F)(F)F)cc2)n[nH]1 [Serial No. 1] at or over 9 in terms of (EC50)theophylline / (EC50)substance?
class 0
